- Tested on: L. donovani promastigotes
- Test: in vitro antileishmanial activity, alamarBlue assay
- Format: cell-based, Leishmania donovani
- Condition summary: Leishmania donovani, 48 h, read-out: L. donovani IC90, promastigotes, 48 h
Class membership depends on IC90 alone; the intervals are zone 1 (below 6 µg/mL), zone 2 (6 µg/mL to below 30 µg/mL), zone 3 (30 µg/mL or more)

Compound | Group label
CCCCCCCOc1c(OC)cc(NC(C)CCCNC(=O)C(N)Cc2ccccc2)c2nc(C(C)(C)C)ccc12 (centres unmarked) | zone 3
C[C@@H]1[C@H](O)[C@@H](C)/C=C/C=C/C=C/C=C/C=C/C=C/C=C/[C@H](O[C@@H]2O[C@H](C)[C@@H](O)[C@H](N)[C@@H]2O)C[C@@H]2O[C@](O)(C[C@@H](O)C[C@@H](O)[C@H](O)CC[C@@H](O)C[C@@H](O)CC(=O)O[C@H]1C)C[C@H](O)[C@H]2C(=O)O [amphotericin B (AMP), amphotericin B, reference compound] | zone 1
CCCCCOc1c(OC)cc(NC(C)CCCNC(=O)C(N)Cc2ccccc2)c2nc(C(C)(C)C)ccc12 (centres unmarked) | zone 2
CCCCOc1c(OC)cc(NC(C)CCCN)c2nc(C(C)(C)C)cc(C)c12 (centres unmarked) | zone 1
CCCCCCCOc1c(OC)cc(NC(C)CCCN)c2nc(C(C)(C)C)cc(C)c12 (centres unmarked) | zone 1
CCCCCOc1c(OC)cc(NC(C)CCCNC(=O)C(N)CCCNC(=N)N)c2nc(C(C)(C)C)ccc12 (centres unmarked) | zone 3
CCCCCCCOc1c(OC)cc(NC(C)CCCN)c2nc(C(C)(C)C)ccc12 (centres unmarked) | zone 3
CCCCCOc1c(OC)cc(NC(C)CCCNC(=O)C(N)C(C)CC)c2nc(C(C)(C)C)ccc12 (centres unmarked) | zone 3
CCCCCCCOc1c(OC)cc(NC(C)CCCNC(=O)C(N)Cc2cc3ccccc3[nH]2)c2nc(C(C)(C)C)ccc12 (centres unmarked) | zone 3
CCCCCCCCOc1c(OC)cc(NC(C)CCCNC(=O)C(N)Cc2ccccc2)c2nc(C(C)(C)C)ccc12 (centres unmarked) | zone 2

* * *

- Test system: L. donovani promastigotes
- Test: in vitro antileishmanial activity, alamarBlue assay
- Assay type: cell-based, Leishmania donovani
- Condition summary: Leishmania donovani, 48 h, read-out: L. donovani IC90, promastigotes, 48 h
Catalogue of compounds with associated IC90

Compound | Experimental system | IC90
CCCCCCOc1c(OC)cc(NC(C)CCCN)c2nc(C(C)(C)C)ccc12 (stereo not shown) | L. donovani promastigotes | > 40 µg/mL
CCCCCCOc1c(OC)cc(NC(C)CCCNC(=O)C(N)Cc2ccccc2)c2nc(C(C)(C)C)ccc12 (stereo not shown) | L. donovani promastigotes | > 40 µg/mL
CCCCCCOc1c(OC)cc(NC(C)CCCNC(=O)C(N)Cc2cc3ccccc3[nH]2)c2nc(C(C)(C)C)ccc12 (stereo not shown) | L. donovani promastigotes | > 40 µg/mL
CCCCCCCCOc1c(OC)cc(NC(C)CCCN)c2nc(C(C)(C)C)cc(C)c12 (stereo not shown) | L. donovani promastigotes | 15.6 µg/mL
CCCCCCCCOc1c(OC)cc(NC(C)CCCNC(=O)C2CCCN2)c2nc(C(C)(C)C)ccc12 (stereo not shown) | L. donovani promastigotes | 38.4 µg/mL
CCCCCOc1c(OC)cc(NC(C)CCCNC(=O)C(N)Cc2cc3ccccc3[nH]2)c2nc(C(C)(C)C)ccc12 (stereo not shown) | L. donovani promastigotes | 2.93 µg/mL
CCCCCCOc1c(OC)cc(NC(C)CCCNC(=O)C(N)Cc2cnc[nH]2)c2nc(C(C)(C)C)ccc12 (stereo not shown) | L. donovani promastigotes | 7 µg/mL
CCCCCCCOc1c(OC)cc(NC(C)CCCNC(=O)C(N)C(C)CC)c2nc(C(C)(C)C)ccc12 (stereo not shown) | L. donovani promastigotes | 7 µg/mL
CCCCCCCOc1c(OC)cc(NC(C)CCCNC(=O)C(N)CCSC)c2nc(C(C)(C)C)ccc12 (stereo not shown) | L. donovani promastigotes | 12 µg/mL
CCCCCOc1c(OC)cc(NC(C)CCCN)c2nc(C(C)(C)C)ccc12 (stereo not shown) | L. donovani promastigotes | > 40 µg/mL
CCCCCCOc1c(OC)cc(NC(C)CCCNC(=O)C(C)N)c2nc(C(C)(C)C)ccc12 (stereo not shown) | L. donovani promastigotes | 37.3 µg/mL
COc1cc(NC(C)CCCN)c2nc(C(C)(C)C)ccc2c1Oc1ccc(Cl)c(Cl)c1 (stereo not shown) | L. donovani promastigotes | > 40 µg/mL
CCCCCOc1c(OC)cc(NC(C)CCCN)c2nc(C(C)(C)C)cc(C)c12 (stereo not shown) | L. donovani promastigotes | 23.9 µg/mL
CCCCCCCCOc1c(OC)cc(NC(C)CCCN)c2nc(C(C)(C)C)ccc12 (stereo not shown) | L. donovani promastigotes | > 40 µg/mL
CCCCCCCCOc1c(OC)cc(NC(C)CCCNC(=O)C(N)Cc2cc3ccccc3[nH]2)c2nc(C(C)(C)C)ccc12 (stereo not shown) | L. donovani promastigotes | 25.7 µg/mL
CCCCCCOc1c(OC)cc(NC(C)CCCNC(=O)C(N)CCSC)c2nc(C(C)(C)C)ccc12 (stereo not shown) | L. donovani promastigotes | 22 µg/mL
